- Tested on: BT-549 breast
- method description: NCI-60 one-dose screen, 48 h (100 = growth as untreated, 0 = no growth, -100 = all killed)
- condition details: 10 µM unless noted
About 83,000 compounds went through this panel and 20% of them were active in at least one assay; those are over-represented in the sample as a whole. Active and inactive are the calls of the source. The calls were made as follows: active = growth percent below 10; inactive = the rest.
attribute measured: growth

compound=C=CCn1c(SCC(=O)Nc2ccc(C(=O)/C=C/c3cc(OC)c(OC)c(OC)c3)cc2)nnc1-c1ccccc1 measurement="95.5% (inactive)"
compound=COc1ccc2c(c1)/C(=C1\S/C(=N/c3nnc(C)s3)NC1=O)C(=O)N2Cc1ccc(Cl)cc1 measurement="54.6% (inactive)"
compound=COc1ccc(-c2[nH]c3ccccc3c2C=C(C#N)C#N)cc1 measurement="45.9% (inactive)"
compound=C=C1C(=O)O[C@H]2[C@H]1CC/C(C=Nc1c(N)cc(C(F)(F)F)cc1Br)=C\CC[C@@]1(C)O[C@@H]21 measurement="-22.6% (active)"
compound=C[C@@H]1C(=O)[C@@H]2C[C@@H](O)[C@@H](O)C[C@]2(C)[C@H]2CC[C@@]3(C)C(=C12)CC[C@@H]3[C@@](C)(O)[C@H](O)CCC(C)(C)O measurement="102% (inactive)"
compound=CCSc1nc(Cl)c(C#N)c(-c2ccc(F)cc2)n1 measurement="103% (inactive)"
compound=NS(=O)(=O)c1ccc(-n2nc(-c3ccccc3)ccc2=O)cc1 measurement="123% (inactive)"
compound=[2H]c1cc2c(c([2H])c1F)/C(=C/c1[nH]c(C)c(C(=O)NCCN(CC)CC)c1C)C(=O)N2 measurement="67.6% (inactive)"

Sure, the documented growth for CCCCc1n(Cc2ccc3ccccc3n2)cc[n+]1Cc1ccc2ccccc2c1 is -16.9% (active)

Memo: CCOC(=O)NC(Cc1ccccc1)c1ccccc1 (stereo not given) , reported growth: 96.5% (inactive)
